Test: 19F NMR chemical shifts and longitudinal relaxation rates at 188 MHz (4.7 T, 298K)
Format: physicochemical
Conditions: 188 MHz, pH 5.5, referred to NaCF3CO2 δF −76.1 ppm
Limiting 19F chemical shift δF other CF3 group if present overview

Worked examples, 4 compounds total:
COMPOUND	VALUE REPORTED
O=C([O-])CN1CCN(CC(=O)[O-])CCN(CC(=O)Nc2ccc(C(F)(F)F)cc2C(F)(F)F)CCN(CC(=O)[O-])CC1.[Y+3] [[YL^1]]	−63.1 ppm
O=C([O-])CN1CCN(CC(=O)[O-])CCN(CC(=O)Nc2ccc(C(F)(F)F)cc2C(F)(F)F)CCN(CC(=O)[O-])CC1.[Yb+3] [[YbL^1]]	−59.6 ppm
O=C([O-])CN1CCN(CC[N-]S(=O)(=O)c2cc(C(F)(F)F)ccc2C(F)(F)F)CCN(CC(=O)[O-])CCN(CC(=O)[O-])CC1.[Eu+3] [[EuL^2]^−]	−65 ppm
O=C([O-])CN1CCN(CC[N-]S(=O)(=O)c2cc(C(F)(F)F)ccc2C(F)(F)F)CCN(CC(=O)[O-])CCN(CC(=O)[O-])CC1.[Tb+3] [[TbL^2]^−]	−45 ppm

Request the reported Limiting 19F chemical shift δF other CF3 group if present associated with O=C([O-])CN1CCN(CC(=O)[O-])CCN(CC(=O)Nc2ccc(C(F)(F)F)cc2C(F)(F)F)CCN(CC(=O)[O-])CC1.[Tm+3] [[TmL^1]]
−55 ppm

----------
Test: 19F NMR chemical shifts and longitudinal relaxation rates at 188 MHz (4.7 T, 298K)
Type: physicochemical
Settings: 188 MHz, pH 5.5
Longitudinal relaxation rate R1 other CF3 group overview
Kindly provide the numeric value in s⁻¹ only, without the unit symbol.

COMPOUND	VALUE REPORTED
O=C([O-])CN1CCN(CC[N-]S(=O)(=O)c2cc(C(F)(F)F)ccc2C(F)(F)F)CCN(CC(=O)[O-])CCN(CC(=O)[O-])CC1.[Eu+3] [[EuL^2]^−]	1.5
O=C([O-])CN1CCN(CC(=O)[O-])CCN(CC(=O)Nc2ccc(C(F)(F)F)cc2C(F)(F)F)CCN(CC(=O)[O-])CC1.[Tm+3] [[TmL^1]]	5.6

Request the reported Longitudinal relaxation rate R1 other CF3 group associated with O=C([O-])CN1CCN(CC(=O)[O-])CCN(CC(=O)Nc2ccc(C(F)(F)F)cc2C(F)(F)F)CCN(CC(=O)[O-])CC1.[Yb+3] [[YbL^1]]
1.7

Request the reported Longitudinal relaxation rate R1 other CF3 group associated with O=C([O-])CN1CCN(CC[N-]S(=O)(=O)c2cc(C(F)(F)F)ccc2C(F)(F)F)CCN(CC(=O)[O-])CCN(CC(=O)[O-])CC1.[Tb+3] [[TbL^2]^−]
23

----------
Longitudinal relaxation rate R1 ortho CF3 group overview
Assay: 19F NMR chemical shifts and longitudinal relaxation rates at 188 MHz (4.7 T, 298K)
Type: physicochemical
Settings: 188 MHz, pH 5.5
Protocol: ^19F NMR chemical shifts and longitudinal relaxation rates for various lanthanide complexes of L^1, L^2 and L^3 were measured at 188 MHz (4.7 T, 298K).
Kindly provide the numeric value in s⁻¹ only, without the unit symbol.

COMPOUND	UNITS	VALUE REPORTED
O=C([O-])CN1CCN(CC(=O)[O-])CCN(CC(=O)Nc2ccc(C(F)(F)F)cc2C(F)(F)F)CCN(CC(=O)[O-])CC1.[Tm+3] [[TmL^1]]	s⁻¹	16
O=C([O-])CN1CCN(CC[N-]S(=O)(=O)c2cc(C(F)(F)F)ccc2C(F)(F)F)CCN(CC(=O)[O-])CCN(CC(=O)[O-])CC1.[Tb+3] [[TbL^2]^−]	s⁻¹	71
O=C([O-])CN1CCN(CC[N-]S(=O)(=O)c2cc(C(F)(F)F)ccc2C(F)(F)F)CCN(CC(=O)[O-])CCN(CC(=O)[O-])CC1.[Eu+3] [[EuL^2]^−]	s⁻¹	2.5

--- query ---
Request the reported Longitudinal relaxation rate R1 ortho CF3 group associated with O=C([O-])CN1CCN(CC(=O)[O-])CCN(CC(=O)Nc2ccc(C(F)(F)F)cc2C(F)(F)F)CCN(CC(=O)[O-])CC1.[Yb+3] [[YbL^1]]
4.6

Source listed as patent US20110021765A1.
